// provenance: PubChem BioAssay

Assay: human hepatoma cell viability loss – ATP luminescence, cytotoxicity control for P. falciparum antimalarial project, primary screen (AID 2303);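 further: 0% = DMSO wells and 100% = digitonin-killed cells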
Conditions: HepG2 viability, 24-48 h, at 10 µM, stronger effect = higher value
The source made the active and inactive calls.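 How the source made its calls: active means inhibition above 50%; inactive means the rest.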
Below is a list of entries, each paired with its recorded inhibition value.

Worked examples follow.
compound	inhibition
COc1cccc2cc(C(=O)N[C@@H](CC(C)C)C(=O)N[C@H](/C=N/N3C(=O)CN(Cc4ccccc4)C3=O)CCc3ccccc3)oc12	14% (inactive)
Clc1ccc(C=NNc2ccnc3ccccc23)cc1	5% (inactive)
COc1ccccc1C1CN(CCNC(=O)c2ncc(C)[nH]2)Cc2ccccc2O1 (stereo not given)	4% (inactive)
CCCCCOc1ccc(C=NNc2nc(-c3ccccc3)cc(=O)[nH]2)cc1	0% (inactive)

Enquiry: # inhibition lookup, item `O=C(Nc1cccc(-c2ccc(-c3nc4ccccc4[nH]3)cc2)c1)c1ccncc1`
Return: 30% (inactive)

Enquiry: # inhibition lookup, item `Cc1[nH]c(C)c(-c2ccc(OCCSc3ccncc3)cc2)c(=O)c1Br`
Return: -6% (inactive)

Enquiry: # inhibition lookup, item `CC(C)CCN(Cc1cncn1Cc1cccc(C(F)(F)F)c1)C(=O)c1ccccc1C#N`
Return: -4% (inactive)

Enquiry: # inhibition lookup, item `COc1cc(-c2nnc(SCC(=O)Nc3cc(C)on3)n2C)cc(OC)c1O`
Return: 2% (inactive)

Enquiry: # inhibition lookup, item CN1CCC(NCc2ccc(-c3cccc(S(=O)(=O)NCC4CCCO4)c3)cc2)CC1 (stereo not given)
Return: 8% (inactive)

Enquiry: # inhibition lookup, item `Cc1cc(N2CCOCC2)nc(Nc2ccc(NC(=O)Nc3ccc(F)cc3)cc2)n1`
Return: 35% (inactive)
